# TARGET: Concanavalin-A (Canavalia ensiformis) (UniProt P02866)
# Sequence (P02866 whole entry, looked up): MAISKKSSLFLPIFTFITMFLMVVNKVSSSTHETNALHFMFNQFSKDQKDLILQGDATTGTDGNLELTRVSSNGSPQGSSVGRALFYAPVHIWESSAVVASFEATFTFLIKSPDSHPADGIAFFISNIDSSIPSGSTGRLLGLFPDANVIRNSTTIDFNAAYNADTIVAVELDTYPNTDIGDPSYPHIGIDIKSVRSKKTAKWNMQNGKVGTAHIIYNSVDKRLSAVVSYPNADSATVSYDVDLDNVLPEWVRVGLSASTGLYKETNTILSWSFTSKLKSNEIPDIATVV
# PROTOCOL NOTES: ConA small-molecule binders, primary screen, artefact control for SMM control protein annotation, biochemical, small-molecule microarray, Alexa647 label, 635 nm (AID 1127);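 also: z combines 667 nm emission intensity with signal-to-noise across three replicate slides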
# ASSAY SETUP: ConA-A647 binding fluorescence, higher = more signal
METRIC: composite z-score

Please review the entries below; each comes with its answer.
COMPOUND	METRIC	TEST RESULT
C[C@]12C(=O)N(CCCCCCO)[C@@H]3C(=O)N(c4ccc(Cl)cc4)CC=CC31O[C@@H]1/C=C\CCCOC(=O)C12 (stereo not given in full)	composite z-score	-0.403
Cc1ccc(S[C@]2(C(=O)NC(C)C)CC(=O)N(C3Cc4ccccc4C3)[C@@H]2c2ccc(CO)cc2I)cc1	composite z-score	-0.181
O=C1NC(=O)C2C1C=CC(C(O)c1ccc3c(c1)OCO3)N2Nc1ccccn1 (stereo not given)	composite z-score	0.667
COCCOC(=O)N1C(=O)[C@@]2(c3cc(C#CC4(O)CCCCCC4)ccc31)[C@H](C(N)=O)[C@H]1C(=O)O[C@H](c3ccccc3)[C@H](c3ccccc3)N1[C@@H]2c1ccccc1OCCO	composite z-score	0.845
C=CCN1C(=O)[C@@]2(O[C@@H](CCn3cc([C@H](O)c4ccccc4)nn3)[C@H]([Si](C)(C)c3ccc(OC)cc3)[C@H]2C)c2ccccc21	composite z-score	1.01
O=c1cccc(-c2cccc(Cl)c2)o1	composite z-score	0.164
CC=CC(O)C1C=CC2C(=O)N(c3ccccc3)C(=O)C2N1Nc1ccccc1 (stereo not given)	composite z-score	1.19
COC(=O)[C@]1(CCS(=O)(=O)c2ccccc2)N=C(c2ccc(OCCCO)cc2)O[C@@H]1c1ccccc1CN=[N+]=[N-]	composite z-score	0.848

Measured composite z-score, O=C1NC(=O)C2C1C=CC(C(O)c1ccc(Br)cc1)N2Nc1ccccn1 (stereo not given) : 0.48

Measured composite z-score, `CC(C)(C)OC(=O)CC[C@]1(C(=O)O)N=C(c2ccc(OCCCO)cc2)O[C@H]1c1ccccc1CN=[N+]=[N-]` : -0.192

Measured composite z-score, CCN(CC)c1ccc(N2CC=CC34O[C@@H]5/C=C\CCC(C)OC(=O)C5[C@H]3C(=O)N(CCO)[C@@H]4C2=O)cc1 (stereo not given in full) : -0.242

Measured composite z-score, CC1CC/C=C\[C@H]2OC34C=CCN(C(C)C)C(=O)[C@H]3N(CCCCCO)C(=O)[C@@H]4C2C(=O)O1 (stereo not given in full) : -0.486

Measured composite z-score, `Cc1c(NC(=O)/C(C#N)=C/C=C/c2ccccc2[N+](=O)[O-])c(=O)n(-c2ccccc2)n1C` : 0.761

---

Recorded z-score by entry
# PROTOCOL NOTES: RPMI8226 myeloma cell viability, profiling panel, resazurin fluorescence, basal, 24 h, PK04 Diversity Set (AID 1180);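 also: RPMI8826 multiple myeloma cell line at 5000 cells per well; test concentration not given here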
# ASSAY SETUP: higher = more signal
Give the figure by itself; no unit, no explanation.

MOL SMILES	METRIC	TEST RESULT
COc1c(C)cc(-c2cc3c(c(-c4ccccc4)n2)[Si](C(C)C)(C(C)C)OC3)cc1C	z-score	0.798
COc1cc2c(cc1OC)CN(C(=O)[C@@H]1[C@H]3C(=O)O[C@H](c4ccccc4)[C@H](c4ccccc4)N3[C@H](c3ccccc3OCCO)[C@@]13C(=O)Nc1ccc(C#CC4(O)CCCCCC4)cc13)CC2	z-score	0.284

API: the following record is the query input.
Measured z-score, `C=CCNC(=O)[C@@H]1[C@H]2C(=O)O[C@H](c3ccccc3)[C@H](c3ccccc3)N2[C@H](c2ccc(OCCO)cc2)[C@@]12C(=O)N(C(=O)OCCOC)c1ccc(C#CC3=CCCCC3)cc12` : -1.66

Source of measurements: PubChem BioAssay
